Ref: patent US11981658B2

Measured log10 IC50 by item
Target: EGFR Del19/T790M/C797S (Homo sapiens, UniProt P00533, C797S/DEL746-750/T790M)
Sequence (P00533 with tags, fused parts or gaps DEL746-750/T790M/C797S): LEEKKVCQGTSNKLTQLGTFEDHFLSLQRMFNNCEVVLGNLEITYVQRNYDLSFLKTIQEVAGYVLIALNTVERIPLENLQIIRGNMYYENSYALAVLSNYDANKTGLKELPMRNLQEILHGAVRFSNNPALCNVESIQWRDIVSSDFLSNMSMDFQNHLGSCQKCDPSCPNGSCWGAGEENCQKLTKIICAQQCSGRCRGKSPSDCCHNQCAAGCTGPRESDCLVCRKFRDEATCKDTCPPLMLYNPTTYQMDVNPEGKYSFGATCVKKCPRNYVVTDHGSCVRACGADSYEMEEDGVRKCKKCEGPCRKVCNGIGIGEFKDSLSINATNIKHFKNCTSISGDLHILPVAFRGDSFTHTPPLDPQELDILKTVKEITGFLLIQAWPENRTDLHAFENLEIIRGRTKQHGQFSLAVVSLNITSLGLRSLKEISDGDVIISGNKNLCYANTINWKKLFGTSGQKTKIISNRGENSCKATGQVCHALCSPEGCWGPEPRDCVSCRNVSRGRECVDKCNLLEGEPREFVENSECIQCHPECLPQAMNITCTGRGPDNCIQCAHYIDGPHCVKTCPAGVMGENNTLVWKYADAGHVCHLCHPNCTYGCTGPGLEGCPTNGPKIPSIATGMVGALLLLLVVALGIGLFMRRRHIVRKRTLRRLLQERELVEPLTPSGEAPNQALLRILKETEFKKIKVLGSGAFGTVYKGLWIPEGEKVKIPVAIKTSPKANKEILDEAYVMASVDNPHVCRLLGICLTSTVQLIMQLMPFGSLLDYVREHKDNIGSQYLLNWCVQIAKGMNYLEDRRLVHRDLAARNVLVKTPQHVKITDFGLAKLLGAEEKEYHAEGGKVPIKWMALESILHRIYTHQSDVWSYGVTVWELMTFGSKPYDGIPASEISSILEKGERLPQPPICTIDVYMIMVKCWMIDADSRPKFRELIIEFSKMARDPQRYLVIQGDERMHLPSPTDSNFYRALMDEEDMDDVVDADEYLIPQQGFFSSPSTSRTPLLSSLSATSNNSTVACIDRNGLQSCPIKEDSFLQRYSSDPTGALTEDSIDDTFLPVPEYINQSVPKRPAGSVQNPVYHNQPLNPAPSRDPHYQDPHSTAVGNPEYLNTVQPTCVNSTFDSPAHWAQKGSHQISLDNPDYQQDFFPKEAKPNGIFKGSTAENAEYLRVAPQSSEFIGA
Assay: Biochemical EGFR kinase inhibition assay (Lance Ultra TR-FRET), triple mutant del19/T790M/C797S
Settings: ATP at Km; read-out: IC50 Del19/T790M/C797S (nM), Km ATP
Structures can show the parent of a compound that is named as a salt.
Transform log10 | Measure IC50 | Unit nM

Would you please look over these solved cases?
[[record]]
compound = "CC(C)(O)CC#Cc1cnc(Nc2ccnc(-c3cnn(S(=O)(=O)C4CC4)c3)n2)cc1N1CCC(C)(CO)CC1 [Example 284]"
target_system = "EGFR Del19/T790M/C797S (Homo sapiens, UniProt P00533, C797S/DEL746-750/T790M)"
value_kind = "log10 IC50"
val = 0.04

[[record]]
compound = "CC1(CO)CCN(c2cc(Nc3ccnc(-c4cnn(S(=O)(=O)C5CC5)c4)n3)ncc2C#CCCO)CC1 [Example 274]"
target_system = "EGFR Del19/T790M/C797S (Homo sapiens, UniProt P00533, C797S/DEL746-750/T790M)"
value_kind = "log10 IC50"
val = -1.00

[[record]]
compound = "CC1(CO)CCN(c2cc(Nc3ccnc(Nc4ccccc4S(C)(=O)=O)n3)ncc2C#Cc2cnn(C(F)F)c2)CC1 [Example 271]"
target_system = "EGFR Del19/T790M/C797S (Homo sapiens, UniProt P00533, C797S/DEL746-750/T790M)"
value_kind = "log10 IC50"
val = 0.26

[[record]]
compound = "O=S(=O)(C1CC1)n1cc(-c2nccc(Nc3cc(N[C@H]4CC[C@@H](O)CC4)c(C#Cc4ncc(CN5CCOCC5)cn4)cn3)n2)cn1 [Example 194]"
target_system = "EGFR Del19/T790M/C797S (Homo sapiens, UniProt P00533, C797S/DEL746-750/T790M)"
value_kind = "log10 IC50"
val = -0.30

[[record]]
compound = "CC1(CO)CCN(c2cc(Nc3ccnc(-c4cnn(S(=O)(=O)C5CC5)c4)n3)ncc2C#CC2CCCCC2)CC1 [Example 252]"
target_system = "EGFR Del19/T790M/C797S (Homo sapiens, UniProt P00533, C797S/DEL746-750/T790M)"
value_kind = "log10 IC50"
val = 0.93

[[record]]
compound = "O=S(=O)(C1CC1)n1cc(-c2nccc(Nc3cc(N[C@H]4CC[C@@H](O)CC4)c(C#CC4(O)CCCC4)cn3)n2)cn1 [Example 176]"
target_system = "EGFR Del19/T790M/C797S (Homo sapiens, UniProt P00533, C797S/DEL746-750/T790M)"
value_kind = "log10 IC50"
val = -0.30


Item CN1CCC2(CCN(c3cc(Nc4ccnc(-c5cnn(S(=O)(=O)C6CC6)c5)n4)ncc3C#Cc3cnn(C)c3)CC2)C1 [Example 297, formate] was tested on EGFR Del19/T790M/C797S (Homo sapiens, UniProt P00533, C797S/DEL746-750/T790M); the reported log10 IC50 is -1.00

Bench note, EGFR Del19/T790M/C797S (Homo sapiens, UniProt P00533, C797S/DEL746-750/T790M): entry Cc1nn(S(=O)(=O)N(C)C)cc1-c1nccc(Nc2cc(N3CCC(C)(CO)CC3)c(C#Cc3cnn(C(F)(F)F)c3)cn2)n1 [Example 272] , its log10 IC50 = 0.60

EGFR Del19/T790M/C797S (Homo sapiens, UniProt P00533, C797S/DEL746-750/T790M) log10 IC50 of CN1CCN(Cc2ccc(C#Cc3cnc(Nc4ccnc(-c5cnn(S(=O)(=O)C6CC6)c5)n4)cc3N3CCC(C)(CO)CC3)cn2)CC1 [Example 279] is -0.22

The reported log10 IC50 value, EGFR Del19/T790M/C797S (Homo sapiens, UniProt P00533, C797S/DEL746-750/T790M), for C[C@]1(O)CC[C@@H](Nc2cc(Nc3ccnc(-c4cnn(S(=O)(=O)C5CC5)c4)n3)ncc2C#CCN2CCOCC2)CC1 [Example 166] reads 0.15

Lab note: compound CC1(CO)CCN(c2cc(Nc3ccnc(-c4cnn(S(=O)(=O)C5CC5)c4)n3)ncc2C#Cc2cnn(CC3CCCOC3)c2)CC1 (centres unmarked) [Example 241] tested on EGFR Del19/T790M/C797S (Homo sapiens, UniProt P00533, C797S/DEL746-750/T790M); recorded log10 IC50 was 0.32

Record CC1(CO)CCN(c2cc(Nc3ccnc(-c4cnn(S(=O)(=O)C5CC5)c4)n3)ncc2C#CC2CCCC2)CC1 [Example 251] has EGFR Del19/T790M/C797S (Homo sapiens, UniProt P00533, C797S/DEL746-750/T790M) log10 IC50 equal to 0.48

Recorded log10 IC50 for CN(C)CC1CCN(c2cc(Nc3ccnc(-c4cnn(S(=O)(=O)C5CC5)c4)n3)ncc2C#Cc2cnn(C3CC3)c2)CC1 [Example 298] on EGFR Del19/T790M/C797S (Homo sapiens, UniProt P00533, C797S/DEL746-750/T790M) was -0.52

Field log10 IC50 (EGFR Del19/T790M/C797S (Homo sapiens, UniProt P00533, C797S/DEL746-750/T790M)), entry CC1(CO)CCN(c2cc(Nc3ccnc(-c4cnn(S(=O)(=O)C5CC5)c4)n3)ncc2C#Cc2ccc(CN3CCOCC3)cc2)CC1 [Example 253] : 0.72

* * *

Target: EGFR L858R/C797S (Homo sapiens, UniProt P00533, C797S/L858R)
Sequence (P00533 25-1210 C797S/L858R): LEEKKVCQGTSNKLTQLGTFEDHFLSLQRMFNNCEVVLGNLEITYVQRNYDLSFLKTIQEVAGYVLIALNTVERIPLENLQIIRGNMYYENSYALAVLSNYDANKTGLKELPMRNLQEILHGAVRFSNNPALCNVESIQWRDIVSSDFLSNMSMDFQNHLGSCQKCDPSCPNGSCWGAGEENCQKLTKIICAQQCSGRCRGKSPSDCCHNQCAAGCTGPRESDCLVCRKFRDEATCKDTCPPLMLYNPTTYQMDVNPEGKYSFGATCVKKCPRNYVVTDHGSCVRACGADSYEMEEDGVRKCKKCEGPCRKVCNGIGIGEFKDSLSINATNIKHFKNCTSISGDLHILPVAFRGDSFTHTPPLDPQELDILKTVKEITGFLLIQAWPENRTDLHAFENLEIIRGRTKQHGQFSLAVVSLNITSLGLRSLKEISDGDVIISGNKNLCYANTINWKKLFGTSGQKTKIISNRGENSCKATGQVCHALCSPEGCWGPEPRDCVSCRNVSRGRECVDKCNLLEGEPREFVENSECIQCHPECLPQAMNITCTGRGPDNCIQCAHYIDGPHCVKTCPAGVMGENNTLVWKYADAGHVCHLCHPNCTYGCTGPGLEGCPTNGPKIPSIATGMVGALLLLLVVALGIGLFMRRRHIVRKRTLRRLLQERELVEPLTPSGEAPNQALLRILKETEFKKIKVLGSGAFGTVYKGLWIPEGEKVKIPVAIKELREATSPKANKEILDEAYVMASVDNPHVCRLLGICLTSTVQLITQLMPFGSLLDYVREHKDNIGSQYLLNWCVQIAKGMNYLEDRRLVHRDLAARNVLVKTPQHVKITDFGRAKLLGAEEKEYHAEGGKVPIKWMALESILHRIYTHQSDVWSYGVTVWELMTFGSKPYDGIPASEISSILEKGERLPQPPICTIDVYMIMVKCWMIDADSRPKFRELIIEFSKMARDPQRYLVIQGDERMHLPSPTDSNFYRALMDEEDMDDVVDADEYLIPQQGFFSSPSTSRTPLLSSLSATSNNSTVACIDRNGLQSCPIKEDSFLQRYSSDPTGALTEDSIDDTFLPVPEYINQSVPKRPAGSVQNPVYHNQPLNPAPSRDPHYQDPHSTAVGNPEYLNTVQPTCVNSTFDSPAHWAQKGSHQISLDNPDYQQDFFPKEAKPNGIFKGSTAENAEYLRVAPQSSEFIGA
Test: Biochemical EGFR kinase inhibition assay (Lance Ultra TR-FRET), double mutant L858R/C797S
Conditions: IC50 L858R/C797S (nM), 100 μM ATP
Measured IC50 of individual entries
Provide only the numeric value, understood in nM.

[[record]]
molecule = "CC1(CO)CCN(c2cc(Nc3ccnc(-c4cnn(S(=O)(=O)C5CC5)c4)n3)ncc2C#Cc2cnn(C3CCOC3)c2)CC1 (stereo not shown) [Example 244]"
value_kind = "IC50"
unit_text = "nM"
val = 3.1

[[record]]
molecule = "O=S(=O)(C1CC1)n1cc(-c2nccc(Nc3cc(N4CCC[C@@H](O)C4)c(C#Cc4cnn(CCF)c4)cn3)n2)cn1 [Example 440]"
value_kind = "IC50"
unit_text = "nM"
val = 61.5


Pending molecule:
Entry CC1(CO)CCN(c2cc(Nc3ccnc(-c4cnn(S(=O)(=O)C5CC5)c4)n3)ncc2C#Cc2ccc(C(=O)N3CCOCC3)cc2)CC1 [Example 263] , EGFR L858R/C797S (Homo sapiens, UniProt P00533, C797S/L858R) data, IC50 value: 3.2

* * *

Target: EGFR Del19/C797S (Homo sapiens, UniProt P00533, C797S/DEL746-750)
Sequence (P00533 with tags, fused parts or gaps DEL746-750/C797S): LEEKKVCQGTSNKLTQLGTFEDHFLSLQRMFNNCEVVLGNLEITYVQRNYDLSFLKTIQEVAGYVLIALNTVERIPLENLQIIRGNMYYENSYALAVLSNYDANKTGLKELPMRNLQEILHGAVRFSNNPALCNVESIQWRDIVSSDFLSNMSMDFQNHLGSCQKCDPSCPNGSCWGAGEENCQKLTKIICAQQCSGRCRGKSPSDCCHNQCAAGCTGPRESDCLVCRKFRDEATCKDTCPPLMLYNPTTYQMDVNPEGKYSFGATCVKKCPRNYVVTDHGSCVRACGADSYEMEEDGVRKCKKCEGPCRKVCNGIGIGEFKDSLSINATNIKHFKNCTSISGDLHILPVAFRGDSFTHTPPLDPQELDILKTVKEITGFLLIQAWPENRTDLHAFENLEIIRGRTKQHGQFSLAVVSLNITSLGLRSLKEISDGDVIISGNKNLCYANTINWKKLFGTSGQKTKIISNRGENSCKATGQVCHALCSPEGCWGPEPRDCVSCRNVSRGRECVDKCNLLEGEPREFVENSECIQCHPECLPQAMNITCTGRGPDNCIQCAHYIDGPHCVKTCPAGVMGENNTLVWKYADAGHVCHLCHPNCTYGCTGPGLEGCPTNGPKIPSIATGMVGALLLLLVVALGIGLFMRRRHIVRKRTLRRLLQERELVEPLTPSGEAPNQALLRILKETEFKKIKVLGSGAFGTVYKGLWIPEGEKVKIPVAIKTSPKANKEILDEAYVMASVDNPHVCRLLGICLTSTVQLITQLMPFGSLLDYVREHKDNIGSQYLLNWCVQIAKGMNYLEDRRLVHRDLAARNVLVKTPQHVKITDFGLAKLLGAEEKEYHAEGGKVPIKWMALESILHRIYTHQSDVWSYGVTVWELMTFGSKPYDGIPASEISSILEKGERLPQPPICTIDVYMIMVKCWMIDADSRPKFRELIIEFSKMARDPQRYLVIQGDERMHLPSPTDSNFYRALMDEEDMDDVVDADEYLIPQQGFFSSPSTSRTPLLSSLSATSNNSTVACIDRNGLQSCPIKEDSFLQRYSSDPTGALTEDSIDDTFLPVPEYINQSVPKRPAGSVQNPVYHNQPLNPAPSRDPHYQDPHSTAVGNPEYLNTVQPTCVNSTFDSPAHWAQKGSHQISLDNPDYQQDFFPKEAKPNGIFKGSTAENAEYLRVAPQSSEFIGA
Test: Biochemical EGFR kinase inhibition assay (Lance Ultra TR-FRET), double mutant del19/C797S
Conditions: Km ATP; read-out: IC50 Del19/C797S (nM) Km ATP
Cut-off 3 nM on IC50: below means satisfied, at or above means not satisfied.

Example cases with answers are listed next.
[[record]]
compound = "CN(C)CCCn1cc(C#Cc2cnc(Nc3ccnc(-c4cnn(S(=O)(=O)C5CC5)c4)n3)cc2N2CCC(NCCF)CC2)cn1"
category_label = "satisfied"

[[record]]
compound = "O=S(=O)(C1CC1)n1cc(-c2nccc(Nc3cc(N4CCC(NCCF)CC4)c(C#Cc4cnn(C5CCOCC5)c4)cn3)n2)cn1"
category_label = "not satisfied"

[[record]]
compound = "O=S(=O)(C1CC1)n1cc(-c2nccc(Nc3cc(N4CCC(F)CC4)c(C#Cc4cnn(C5CCOCC5)c4)cn3)n2)cn1"
category_label = "not satisfied"

[[record]]
compound = "CC(C)Oc1cc(Nc2ccnc(-c3cnn(S(=O)(=O)C4CC4)c3)n2)ncc1C#Cc1cnn(CCF)c1"
category_label = "not satisfied"

[[record]]
compound = "CC(C)Nc1cc(Nc2ccnc(-c3cnn(S(=O)(=O)C4CC4)c3)n2)ncc1C#Cc1cnn(C(C)C)c1"
category_label = "not satisfied"


-- ask In plain terms, does `CN1CCC(n2cc(C#Cc3cnc(Nc4ccnc(-c5cnn(S(=O)(=O)C6CC6)c5)n4)cc3N3CCC(C)(CO)CC3)cn2)CC1` come in under 3 nM for IC50?
-- reply satisfied

-- ask Is 3 nM strictly greater than the compound's reported IC50? compound: CC(=O)N1CCC(n2cc(C#Cc3cnc(Nc4ccnc(-c5cnn(S(=O)(=O)C6CC6)c5)n4)cc3N3CCCC(O)C3)cn2)CC1 (stereo not shown)
-- reply not satisfied

* * *

Target: EGFR L858R/T790M/C797S (Homo sapiens, UniProt P00533, C797S/L858R/T790M)
Sequence (P00533 25-1210 T790M/C797S/L858R): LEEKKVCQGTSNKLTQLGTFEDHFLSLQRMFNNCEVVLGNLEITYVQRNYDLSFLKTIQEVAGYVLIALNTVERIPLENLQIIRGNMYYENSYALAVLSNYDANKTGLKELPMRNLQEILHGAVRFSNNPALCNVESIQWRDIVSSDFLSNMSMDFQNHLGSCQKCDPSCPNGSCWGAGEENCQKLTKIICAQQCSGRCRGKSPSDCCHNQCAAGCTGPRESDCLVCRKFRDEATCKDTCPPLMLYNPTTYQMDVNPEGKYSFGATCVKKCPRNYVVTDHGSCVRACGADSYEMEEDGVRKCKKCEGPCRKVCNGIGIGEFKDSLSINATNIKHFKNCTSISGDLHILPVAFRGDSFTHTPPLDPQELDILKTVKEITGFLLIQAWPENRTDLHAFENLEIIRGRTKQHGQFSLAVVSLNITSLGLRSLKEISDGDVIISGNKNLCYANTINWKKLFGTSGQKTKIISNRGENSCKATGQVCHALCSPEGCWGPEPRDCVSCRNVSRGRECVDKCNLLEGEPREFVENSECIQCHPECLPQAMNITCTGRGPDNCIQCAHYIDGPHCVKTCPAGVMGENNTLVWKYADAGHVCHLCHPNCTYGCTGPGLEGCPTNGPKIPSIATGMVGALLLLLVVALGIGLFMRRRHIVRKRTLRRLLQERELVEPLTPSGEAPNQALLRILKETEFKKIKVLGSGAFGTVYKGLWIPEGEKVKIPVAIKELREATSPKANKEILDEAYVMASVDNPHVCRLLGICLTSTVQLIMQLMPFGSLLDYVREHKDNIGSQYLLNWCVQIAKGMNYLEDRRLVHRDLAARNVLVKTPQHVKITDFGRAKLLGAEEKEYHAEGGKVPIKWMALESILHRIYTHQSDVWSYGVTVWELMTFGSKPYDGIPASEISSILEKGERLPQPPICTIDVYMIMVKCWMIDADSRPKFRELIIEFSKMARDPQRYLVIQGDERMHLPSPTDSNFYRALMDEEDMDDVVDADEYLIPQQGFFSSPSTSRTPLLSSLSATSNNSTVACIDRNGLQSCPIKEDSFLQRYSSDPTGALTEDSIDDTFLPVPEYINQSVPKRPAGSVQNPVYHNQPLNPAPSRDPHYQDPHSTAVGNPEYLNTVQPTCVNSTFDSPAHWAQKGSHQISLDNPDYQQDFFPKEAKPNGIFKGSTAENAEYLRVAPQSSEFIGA
Assay: Biochemical EGFR kinase inhibition assay (Lance Ultra TR-FRET), triple mutant L858R/T790M/C797S
Settings: IC50 L858R/T790M/C797S (nM), 100 μM ATP
Experimental: Biochemical EGFR kinase assays were conducted using Lance Ultra time-resolved fluorescence resonance energy transfer (TR-FRET) technology from Perkin-Elmer. […] Each kinase reactions were incubated at room temperature for 1 hour and then stopped by the addition of 4 μL of stop solution (10 mM EDTA). […] After 60 minutes incubation at room temperature the LANCE signal was measured on an EnVision Multilabel Reader (Perkin-Elmer). […]
VALUE_KIND: IC50

[[record]]
compound = "Cn1cc(C#Cc2cnc(Nc3ccnc(-c4cnn(S(=O)(=O)C5CC5)c4)n3)cc2N2CC3(CCNCC3)C2)cn1"
val = "1.9 nM"

[[record]]
compound = "CN(C)CC1(C)CCN(c2cc(Nc3ccnc(-c4cnn(S(=O)(=O)C5CC5)c4)n3)ncc2C#Cc2cnn(CC(F)F)c2)CC1"
val = "0.3 nM"

[[record]]
compound = "Cn1cc(C#Cc2cnc(Nc3ccnc(-c4cnn(S(=O)(=O)C5CC5)c4)n3)cc2N2CCC(O)C(F)(F)C2)cn1 (stereo not shown)"
val = "8.9 nM"


# input for lookup
So for `CC(C)Nc1cc(Nc2ccnc(-c3cnn(S(=O)(=O)C4CC4)c3)n2)ncc1C#Cc1cnn(CCF)c1` , the logged IC50 turned out to be 1.6 nM
